Kindly supply the reported inhibition at 10 µM values for the records listed here.
- Tested on: TNF-α (degradation of IkB in HeLa cells or A431 cells)
- protocol details: Human cell-based assay: inhibition of TNF-α induced degradation of IkB
- experimental setup: 10 μM compound, HeLa or A431 cells, read-out: Inhibition at Various Compound Concentrations, 10 μM
Numbered stars: 1 amine (or outer) side, 2 acyl side, 3 side chain; on linkers, the order of the positions; unused ones are H or OH. Bridge positions count the residues as written; N and C are the ends. Square brackets hold non-standard residues; d marks the D form. Peptide text beside a SMILES is read from it. Tartaroyl(2R,3R-(OAc)2) = CC(=O)O[C@@H](C(=O)[*:1])[C@@H](OC(C)=O)C(=O)[*:2]; Phe(4-(4-pyridyl)) = N[C@@H](Cc1ccc(-c2ccncc2)cc1)C(=O)O; Bip(4'-Cl) = N[C@@H](Cc1ccc(-c2ccc(Cl)cc2)cc1)C(=O)O; Bip = N[C@@H](Cc1ccc(-c2ccccc2)cc1)C(=O)O; dPhe(4-NH2) = Nc1ccc(C[C@@H](N)C(=O)O)cc1; Phe(4-Br) = N[C@@H](Cc1ccc(Br)cc1)C(=O)O; Phe(4-NH2) = Nc1ccc(C[C@H](N)C(=O)O)cc1; d(hPhe) = N[C@H](CCc1ccccc1)C(=O)O; d2Thi = N[C@H](Cc1cccs1)C(=O)O; Suc = O=C(CCC(=O)[*:2])[*:1]

* CC(=O)O[C@H]1C(=O)Nc2ccc(cc2)C[C@H](C(=O)N[C@@H](Cc2ccccc2)C(=O)O)NC(=O)[C@@H](Cc2ccccc2)NC(=O)[C@H](Cc2ccc(Br)cc2)NC(=O)[C@@H](Cc2cccs2)NC(=O)[C@@H]1OC(C)=O [Compound 410] ([d2Thi][Phe(4-Br)][dF][dPhe(4-NH2)]F-OH; linker N-4 via Tartaroyl(2R,3R-(OAc)2)) | 10 to 50%

For every record below, what is its inhibition at 10 µM?
1. O=C(O)CCNC(=O)[C@@H]1Cc2ccc(cc2)OCC(=O)N[C@@H](Cc2cccs2)C(=O)N[C@@H](Cc2ccc(-c3ccccc3)cc2)C(=O)N[C@@H](Cc2ccccc2)C(=O)N1 [Compound 339]
2. O=C1CCC(=O)N[C@H](CCc2ccccc2)C(=O)N[C@@H](Cc2ccc(Br)cc2)C(=O)N[C@H](Cc2ccccc2)C(=O)N[C@@H](C(=O)O)Cc2ccc(cc2)N1 [Compound 111] ([d(hPhe)][Phe(4-Br)][dF][dPhe(4-NH2)]-OH; linker N-4 via Suc)
3. O=C1CCC(=O)N[C@H](CCc2ccccc2)C(=O)N[C@@H](Cc2ccc(-c3ccc(Cl)cc3)cc2)C(=O)N[C@H](Cc2ccccc2)C(=O)N[C@H](C(=O)O)Cc2ccc(cc2)N1 [Compound 116] ([d(hPhe)][Bip(4'-Cl)][dF][Phe(4-NH2)]-OH; linker N-4 via Suc)
4. COC(=O)[C@H](CC(=O)O)NC(=O)[C@@H]1Cc2ccc(cc2)OCC(=O)N[C@@H](Cc2cccs2)C(=O)N[C@@H](Cc2ccc(-c3ccccc3)cc2)C(=O)N[C@@H](Cc2ccccc2)C(=O)N1 [Compound 327]
5. C[C@@H](NC(=O)[C@@H]1Cc2ccc(cc2)OCC(=O)N[C@@H](Cc2cccs2)C(=O)N[C@H](Cc2ccc(-c3ccccc3)cc2)C(=O)N[C@@H](Cc2ccccc2)C(=O)N1)C(=O)O [Compound 384]
6. O=C1COc2ccc(cc2)C[C@@H](C(=O)N[C@@H](Cc2ccc(O)cc2)C(=O)O)NC(=O)[C@H](Cc2ccccc2)NC(=O)[C@H](Cc2ccc(-c3ccccc3)cc2)NC(=O)[C@H](Cc2cccs2)N1 [Compound 343]
7. O=C(O)[C@H](Cc1ccccc1)NC(=O)[C@@H]1Cc2ccc(cc2)NC(=O)[C@H](O)[C@@H](O)C(=O)N[C@H](Cc2cccs2)C(=O)N[C@@H](Cc2ccc(-c3ccccc3)cc2)C(=O)N[C@H](Cc2ccccc2)C(=O)N1 [Compound 174]

Output:
10 to 50%
< 10%
< 10%
< 10%
< 10%
10 to 50%
10 to 50%

For every record below, what is its inhibition at 10 µM?
1. C[C@H](NC(=O)[C@@H]1Cc2ccc(cc2)OCC(=O)N[C@H](Cc2cccs2)C(=O)N[C@@H](Cc2ccc(-c3ccccc3)cc2)C(=O)N[C@H](CCc2ccccc2)C(=O)N1)C(=O)O [Compound 302]
2. O=C1CCC(=O)N[C@H](CCc2ccccc2)C(=O)N[C@@H](Cc2ccc(-c3ccncc3)cc2)C(=O)N[C@H](Cc2ccccc2)C(=O)N[C@H](C(=O)O)Cc2ccc(cc2)N1 [Compound 419] ([d(hPhe)][Phe(4-(4-pyridyl))][dF][Phe(4-NH2)]-OH; linker N-4 via Suc)
3. O=C1CCC(=O)N[C@H](CCc2ccccc2)C(=O)N[C@@H](Cc2ccc(-c3ccncc3)cc2)C(=O)N[C@H](Cc2ccccc2)C(=O)N[C@H](C(=O)N[C@@H](Cc2ccccc2)C(=O)O)Cc2ccc(cc2)N1 [Compound 426] ([d(hPhe)][Phe(4-(4-pyridyl))][dF][Phe(4-NH2)]F-OH; linker N-4 via Suc)

Output:
1. 10 to 50%
2. < 10%
3. 10 to 50%

For every record below, what is its inhibition at 10 µM?
1. O=C1CCC(=O)N[C@H](Cc2cccs2)C(=O)N[C@@H](Cc2ccc(-c3ccccc3)cc2)C(=O)N[C@H](CCc2ccccc2)C(=O)N[C@H](C(=O)O)Cc2ccc(cc2)N1 [Compound 47] ([d2Thi][Bip][d(hPhe)][Phe(4-NH2)]-OH; linker N-4 via Suc)
2. O=C(N[C@H](Cc1ccccc1)C(=O)O)[C@@H]1Cc2ccc(cc2)NC(=O)[C@H](O)[C@@H](O)C(=O)N[C@H](Cc2cccs2)C(=O)N[C@@H](Cc2ccc(-c3ccccc3)cc2)C(=O)N[C@H](Cc2ccccc2)C(=O)N1 [Compound 16]

Output:
1: < 10%; 2: < 10%

---

- experimental system: TNFα / TNFα receptor (TNFα R1/Fc) (Homo sapiens, UniProt P01375)
- Construct: purchased R&D Systems
- Sequence (P01375 77-233 limits assumed, species assumed): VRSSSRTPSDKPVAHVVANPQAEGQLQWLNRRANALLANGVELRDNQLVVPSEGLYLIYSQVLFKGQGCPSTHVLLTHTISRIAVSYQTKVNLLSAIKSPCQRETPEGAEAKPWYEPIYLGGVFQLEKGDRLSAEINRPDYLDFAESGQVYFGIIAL
- protocol details: Inhibition of binding of TNFα to the TNFα receptor (plate ELISA competition)
- experimental setup: Table 2; read-out: Activity (IC50, inhibition of TNFα binding to TNFα R1/Fc)
pIC50: −log10 of the molar value. Numbered stars: 1 amine (or outer) side, 2 acyl side, 3 side chain; on linkers, the order of the positions; unused ones are H or OH. Bridge positions count the residues as written; N and C are the ends. Square brackets hold non-standard residues; d marks the D form. Peptide text beside a SMILES is read from it. Bip = N[C@@H](Cc1ccc(-c2ccccc2)cc1)C(=O)O; Phe(4-NH2) = Nc1ccc(C[C@H](N)C(=O)O)cc1; d2Thi = N[C@H](Cc1cccs1)C(=O)O; Suc = O=C(CCC(=O)[*:2])[*:1]
Kindly supply the reported pIC50 values for the records listed here.

Worked cases, pIC50 given:
• O=C1CCC(=O)N[C@H](Cc2cccs2)C(=O)N[C@@H](Cc2ccc(-c3ccccc3)cc2)C(=O)N[C@H](Cc2ccccc2)C(=O)N[C@H](C(=O)O)Cc2ccc(cc2)N1 [Compound 1] ([d2Thi][Bip][dF][Phe(4-NH2)]-OH; linker N-4 via Suc) = 4.52 to 5.00
• O=C(O)[C@H](Cc1ccccc1)NC(=O)[C@H]1Cc2ccc(cc2)NC(=O)[C@H](O)[C@@H](O)C(=O)N[C@@H](Cc2cccs2)C(=O)N[C@H](Cc2ccc(-c3ccccc3)cc2)C(=O)N[C@@H](Cc2ccccc2)C(=O)N1 = > 5.00
• O=C1COc2ccc(cc2)C[C@@H](C(=O)O)NC(=O)[C@H](Cc2c[nH]c3ccccc23)NC(=O)[C@@H](Cc2ccc(-c3ccccc3)cc2)NC(=O)[C@H](Cc2cccs2)N1 = > 5.00

Task: Please look up its pIC50: O=C(O)CCCNC(=O)[C@@H]1Cc2ccc(cc2)OCC(=O)N[C@@H](Cc2cccs2)C(=O)N[C@@H](Cc2ccc(-c3ccccc3)cc2)C(=O)N[C@@H](Cc2ccccc2)C(=O)N1
Output: > 5.00

---

- experimental system: TNFα / TNFα receptor (TNFα R1/Fc) (Homo sapiens, UniProt P01375)
- Construct: purchased R&D Systems
- protocol details: Inhibition of binding of TNFα to the TNFα receptor (plate ELISA competition)
- experimental setup: Table 2; read-out: Activity (IC50, inhibition of TNFα binding to TNFα R1/Fc)
pIC50: −log10 of the molar value. Numbered stars: 1 amine (or outer) side, 2 acyl side, 3 side chain; on linkers, the order of the positions; unused ones are H or OH. Bridge positions count the residues as written; N and C are the ends. Square brackets hold non-standard residues; d marks the D form. Peptide text beside a SMILES is read from it. Bip = N[C@@H](Cc1ccc(-c2ccccc2)cc1)C(=O)O; Phe(4-NH2) = Nc1ccc(C[C@H](N)C(=O)O)cc1; His(τ-Me) = Cn1cnc(C[C@H](N)C(=O)O)c1; d(hPhe) = N[C@H](CCc1ccccc1)C(=O)O; d2Thi = N[C@H](Cc1cccs1)C(=O)O; Suc = O=C(CCC(=O)[*:2])[*:1]
measured parameter: pIC50

Worked cases, pIC50 given:
- O=C1CCC(=O)N[C@H](CCc2ccccc2)C(=O)N[C@@H](Cc2ccc(-n3cccn3)cc2)C(=O)N[C@H](Cc2ccccc2)C(=O)N[C@H](C(=O)O)Cc2ccc(cc2)N1 [Compound 115]: < 4.00
- Cn1cnc(C[C@@H]2NC(=O)[C@@H](Cc3cccs3)NC(=O)CCC(=O)Nc3ccc(cc3)C[C@@H](C(=O)O)NC(=O)[C@@H](Cc3ccccc3)NC2=O)c1 [Compound 100] ([d2Thi][His(τ-Me)][dF][Phe(4-NH2)]-OH; linker N-4 via Suc): < 4.00
- O=C1CCC(=O)N[C@H](Cc2cccs2)C(=O)N[C@@H](Cc2ccc(-c3ccccc3)cc2)C(=O)N[C@H](CCc2ccccc2)C(=O)N[C@H](C(=O)O)Cc2ccc(cc2)N1 [Compound 47] ([d2Thi][Bip][d(hPhe)][Phe(4-NH2)]-OH; linker N-4 via Suc): > 5.00

Task: Please look up its pIC50: O=C(O)[C@@H]1Cc2ccc(cc2)NC(=O)[C@H](O)[C@@H](O)C(=O)N[C@@H](Cc2cccs2)C(=O)N[C@@H](Cc2ccc(-c3ccccc3)cc2)C(=O)N[C@H](Cc2ccccc2)C(=O)N1 [Compound 270]
Output: < 4.00

Cited source: patent US8338565B2
